All figures here come from patent US8871937B2.

Can you tell me pEC50 for the items I'm about to list?
# System: Hep3B (human hepatocellular carcinoma)
# measurement.notes: MTS cytotoxicity test, Hep3B
# Assay type: cell-based
# measurement.conditions: Hep3B (liver), read-out: EC50 (concentration where half of the cells died, MTS test)
pEC50 field: float, defined as -log10 of concentration (mol/L).

Query :: Give pEC50 for the following molecule: CCOC(=O)c1ccc(NC(c2ccc([N+](=O)[O-])cc2)c2ccc3cccnc3c2O)cc1 (stereo not drawn) [Example 2]
Result :: 5.30

Query :: Supply measured pEC50 of Cc1cccc(NC(c2ccc(C(F)(F)F)cc2)c2ccc3cccnc3c2O)n1 (stereo not drawn) [Example 7] in your reply.
Result :: 5.30

Query :: Determine its reported pEC50: Oc1c(C(Nc2ccc(C(F)(F)F)cc2)c2ccccn2)ccc2cccnc12 (stereo not drawn) [Example 5]
Result :: 5.70
